Target: KRas G12C (Homo sapiens, UniProt P01116, C118S/C51S/C80L/G12C)
Experiment: KRas G12C Modification Assay (LCMS detection of covalent adduct)
Format: binding
Details: normalized percent of control; tested at 5 μM concentration for 3 hours
Protocol: A 10 μL aliquot of each protein solution was then transferred to a 384 well microtiter plate. Initial compound stocks were generated at fifty times their desired final assay concentration in DMSO. […] Final data analysis was a multistep process in the Spotfire® data analysis software package. Briefly, each protein mass was calculated as a percent of the total signal of that sample, that percentage was then normalized to the percentage of signal of the protein in the absence of reactive compounds. […]
metric: POC

Example compounds with recorded POC:
- compound: "C=CC(=O)N1CCN(c2nc(OCCCN3CCOCC3)nc3c2CCN(c2cc(O)ccc2SC(F)(F)F)C3)CC1 [Example 214]"
  POC: "C (“C”>50% POC)"
- compound: "C=CC(=O)N1CCN(c2nc(OC(CO)CN3CCOCC3)nc3c2CCN(c2cc(O)cc4ccccc24)C3)CC1 (stereo not shown) [Example 217]"
  POC: "C (“C”>50% POC)"
- compound: "C=CC(=O)N1CCN(c2nc(OCCN3CCCCC3)nc3c2CCN(c2c(C)ccc4[nH]ncc24)C3)CC1 [Example 164]"
  POC: "C (“C”>50% POC)"
- compound: "C=CC(=O)N1CCN(c2nc(OC[C@@H]3C[C@@H](F)CN3C)nc3c2CCN(c2cc(O)cc4ccccc24)C3)CC1 [Example 357]"
  POC: "A (“A”≤25% POC)"
- compound: "C=C(C)C(=O)N1CCN(c2nc(OC[C@@H]3CCCN3C)nc3c2CCN(c2cccc4ccccc24)C3)CC1CC#N (stereo partly shown) [Example 261]"
  POC: "A (“A”≤25% POC)"
- compound: "C=CC(=O)N1CCN(c2nc(OC[C@@H]3CCCN3C)nc3c2CCN(c2cccc4ccccc24)C3)C(CC#N)C1 (stereo partly shown) [Example 437]"
  POC: "C (“C”>50% POC)"

The record that follows has no POC shown yet.
Memo: C=CC(=O)N1CCN(c2nc(OCCCN3CCN(C(C)=O)CC3)nc3c2CCN(c2cc(O)cc4ccccc24)C3)CC1 [Example 135] , reported POC: C (“C”>50% POC)

###

Test system: NCI-H358 cells (express KRas G12C), Phospho-ERK
Experiment: Cellular inhibition of KRas G12C: Phospho-ERK in NCI-H358 cells
Type: cell-based
Conditions: Homo sapiens, NCI-H358, 3 h, pERK(Thr202/Tyr204) normalized with GAPDH; NCI-H358 cells; 3 hours; read-out: IC50
metric: IC50

Here are 8 compounds together with their reported answers.
- compound: "CN(C)C/C=C/C(=O)N1CCN(c2nc(OC[C@@H]3CCCN3C)nc3c2CCN(c2cc(O)cc4ccccc24)C3)CC1"
  IC50: "> 1000 nM"
- compound: "C=CC(=O)N1CCN(c2nc(OCCCN3CCCCC3)nc3c2CCN(c2cc(O)cc4ccccc24)C3)CC1"
  IC50: "0.1 to 1000 nM"
- compound: "C=CC(=O)N1CCN(c2nc(OC[C@@H]3CCCCN3C)nc3c2CCN(c2cccc4ccccc24)C3)C[C@@H]1CC#N"
  IC50: "0.1 to 1000 nM"
- compound: "C=CC(=O)N1CCN(c2nc(OCCCN3CCC(OC)C3)nc3c2CCN(c2cc(O)cc4ccccc24)C3)CC1 (centres unmarked)"
  IC50: "> 1000 nM"
- compound: "C=CC(=O)N1CCN(c2nc(OCCCO)nc3c2CCN(c2cc(O)cc4ccccc24)C3)CC1"
  IC50: "> 1000 nM"
- compound: "C=CC(=O)N1CCN(c2nc(OC3CCN(C)CC3)nc3c2CCN(c2cc(O)cc4ccccc24)C3)CC1"
  IC50: "> 1000 nM"
- compound: "C=CC(=O)N1CCN(c2nc(OC[C@@H]3CCCN3C)nc3c2CCN(c2cccnc2C(F)(F)F)C3)CC1CC#N (some centres unmarked)"
  IC50: "0.1 to 1000 nM"
- compound: "C=CC(=O)N1CCN(c2nc(OCC(C)(C)N(C)C)nc3c2CCN(c2cccc4ccccc24)C3)CC1CC#N (centres unmarked)"
  IC50: "0.1 to 1000 nM"

Reported IC50 ( `C=CC(=O)N1CCN(c2nc(OC[C@@H]3CCCN3C)nc3c2CCN(c2c(O)cccc2F)C3)[C@@H](C)C1` ) = > 1000 nM

For this compound ( `C=CC(=O)N1CCN(c2nc(OC[C@@H]3CCCN3C)nc3c2CCN(c2cccc(OC)c2C)C3)C[C@@H]1CC#N` ), measured IC50 is 0.1 to 1000 nM

Lab note: `C=CC(=O)N1CCN(c2nc(OC[C@@H]3CCCN3C)nc3c2CCN(c2ccccc2C(F)(F)F)C3)CC1` gave IC50 of > 1000 nM

IC50 measured on `C=CC(=O)N1CCN(c2nc(OC[C@@H]3CCCCN3C)nc3c2CCN(c2cc(O)cc4ccccc24)C3)CC1` = 0.1 to 1000 nM

IC50 reported for this compound C=CC(=O)N1CCN(c2nc(OC[C@H]3CCCN3C)nc3c2CCN(c2cc(O)cc4ccccc24)C3)CC1CC#N (some centres unmarked) : 0.1 to 1000 nM

The reported value for `C=CC(=O)N1CCN(c2nc(OC[C@@H]3CCCN3C)nc3c2CCN(c2cccc(OC)c2C(F)(F)F)C3)C[C@@H]1CC#N` in terms of IC50 is 0.1 to 1000 nM
